System: 134 cancer cell lines
Method: Cell viability assay (ATPlite, 72 hours), IC50 on cancer cell line panel
Condition Details: Homo sapiens, SHP77, read-out: IC50 in cell proliferation assay
Quantity: IC50

Worked examples, 3 molecules total:
1) CC#CC(=O)N1CCC[C@H]1c1nc(-c2ccc(C(=O)Nc3ccccn3)cc2)c2c(N)nccn12
> 31.6 µM
2) CCN1C(=O)N(c2c(F)c(OC)cc(OC)c2F)Cc2cnc3[nH]c(CN4CCOCC4)cc3c21
> 31.6 µM
3) CCc1cc2c(cc1N1CCC(N3CCOCC3)CC1)C(C)(C)c1[nH]c3cc(C#N)ccc3c1C2=O
> 10 µM

API: the following record is the query input.
Which value of IC50 has been reported for C=CC(=O)N1CCC([C@@H]2CCNc3c(C(N)=O)c(-c4ccc(Oc5ccccc5)cc4)nn32)CC1 in the records?
> 31.6 µM

====

Assign IC50 to each entry below.
Tested on: 134 cancer cell lines
Method: Cell viability assay (ATPlite, 72 hours), IC50 on cancer cell line panel
Condition Details: Homo sapiens, NCCIT, read-out: IC50 in cell proliferation assay, NCC-IT cell line
Could you give the number and then its unit, please?

1. CC(=O)Nc1cccc(-n2c(=O)n(C3CC3)c(=O)c3c(Nc4ccc(I)cc4F)n(C)c(=O)c(C)c32)c1 [trametinib]
871 nM

Value sought for every listed compound: IC50.
1. O=C(c1ccc(F)c(F)c1Nc1ccc(I)cc1F)N1CC(O)([C@@H]2CCCCN2)C1 [cobimetinib]
2. Cc1nc(NC(=O)N2CCC[C@H]2C(N)=O)sc1-c1ccnc(C(C)(C)C(F)(F)F)c1 [alpelisib]

["1290 nM", "8350 nM"]

====

Target Under Test: panel of 255 wild-type kinases (Homo sapiens)
Sequence (P21709 26-976): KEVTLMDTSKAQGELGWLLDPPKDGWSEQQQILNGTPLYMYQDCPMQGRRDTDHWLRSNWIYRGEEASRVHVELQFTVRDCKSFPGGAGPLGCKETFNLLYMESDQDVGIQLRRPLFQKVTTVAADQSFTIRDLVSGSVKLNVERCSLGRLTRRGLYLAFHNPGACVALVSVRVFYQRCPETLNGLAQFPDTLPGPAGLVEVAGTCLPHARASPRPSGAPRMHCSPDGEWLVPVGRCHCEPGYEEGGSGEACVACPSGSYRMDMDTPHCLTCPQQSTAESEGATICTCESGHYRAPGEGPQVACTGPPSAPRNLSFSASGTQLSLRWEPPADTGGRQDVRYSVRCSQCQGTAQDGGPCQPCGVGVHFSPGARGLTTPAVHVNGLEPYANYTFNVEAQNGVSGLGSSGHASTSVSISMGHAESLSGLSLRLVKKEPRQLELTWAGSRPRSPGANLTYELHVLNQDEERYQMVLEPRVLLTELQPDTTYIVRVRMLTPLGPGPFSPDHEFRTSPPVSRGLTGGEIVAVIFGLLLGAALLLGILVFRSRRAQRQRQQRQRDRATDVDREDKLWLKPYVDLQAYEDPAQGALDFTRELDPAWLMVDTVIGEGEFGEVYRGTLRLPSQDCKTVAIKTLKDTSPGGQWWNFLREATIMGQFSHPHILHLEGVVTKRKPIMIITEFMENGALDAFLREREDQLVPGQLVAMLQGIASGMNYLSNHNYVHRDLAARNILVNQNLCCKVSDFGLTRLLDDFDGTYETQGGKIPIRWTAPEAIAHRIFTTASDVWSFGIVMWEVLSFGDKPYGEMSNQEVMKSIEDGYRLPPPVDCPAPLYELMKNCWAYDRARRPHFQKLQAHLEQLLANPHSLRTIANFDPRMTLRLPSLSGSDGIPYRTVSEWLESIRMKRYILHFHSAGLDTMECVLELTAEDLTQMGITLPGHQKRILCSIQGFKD
Method: Kinase panel profiling at 1 µmol/L (MSA or IMAP), percentage inhibition
Format: biochemical
Condition Details: kinase EPHA1; 1 µmol/L single concentration; read-out: %-inhibition at 1 µmol/L, EPHA1
Quantity: inhibition at 1 µM (%)
Numbers only, in %.

Examples with answers:
1) FC(F)(F)c1ccc(CNc2ccc(Cc3c[nH]c4ncc(Cl)cc34)cn2)cn1 [pexidartinib]
7
2) COC(=O)N[C@@H](C)CNc1nccc(-c2cn(C(C)C)nc2-c2cc(Cl)cc(NS(C)(=O)=O)c2F)n1 [encorafenib]
5.42
3) CCn1c(=O)c(-c2cc(NC(=O)Nc3ccccc3)c(F)cc2Br)cc2cnc(NC)cc21 [ripretinib]
78
4) Cn1cc(-c2cc3c(N4CCN(c5ncc([C@@](C)(N)c6ccc(F)cc6)cn5)CC4)ncnn3c2)cn1 [avapritinib]
51
5) Cc1cc(Nc2ncnc3ccc(NC4=NC(C)(C)CO4)cc23)ccc1Oc1ccn2ncnc2c1 [tucatinib]
21
6) Cn1cnc2c(F)c(Nc3ccc(Br)cc3Cl)c(C(=O)NOCCO)cc21 [selumetinib]
-2.25
7) C=CC(=O)N1CCC([C@@H]2CCNc3c(C(N)=O)c(-c4ccc(Oc5ccccc5)cc4)nn32)CC1 [zanubrutinib]
-0.68

Query: inhibition at 1 µM; subject: CCc1nc(C(N)=O)c(Nc2ccc(N3CCC(N4CCN(C)CC4)CC3)c(OC)c2)nc1NC1CCOCC1 [gilteritinib]
99

====

Tested on: 134 cancer cell lines
Method: Cell viability assay (ATPlite, 72 hours), IC50 on cancer cell line panel
Condition Details: Homo sapiens, A498, read-out: IC50 in cell proliferation assay, cell line A-498
Kindly state IC50 for each of the entries shown.
One number for each entry, in µM.

1) Cn1cnc2c(F)c(Nc3ccc(Br)cc3Cl)c(C(=O)NOCCO)cc21
0.137
2) CCCS(=O)(=O)Nc1ccc(F)c(C(=O)c2c[nH]c3ncc(-c4ccc(Cl)cc4)cc23)c1F
21.6

Would you kindly look at the next entry?
Which value of IC50 has been reported for CN1CCN(c2ccc(C(=O)Nc3n[nH]c4ccc(Cc5cc(F)cc(F)c5)cc34)c(NC3CCOCC3)c2)CC1 in the records?
7.97

src = paper PMC9516332
